Overview of reported AC50 across a group of molecules:
molecular target: p53 Y220C (Homo sapiens, UniProt P04637, Y220C); test: Luciferase Reporter Assay (Luc), p53 response element, NClH1299 cells with inducible p53 Y220C; assay type: cell-based; details: luciferase reporter, NClH1299 inducible p53 Y220C, 6 hour; read-out: Luc P53 Y220C AC50

{"columns": ["molecule", "measurement.target", "AC50"],
 "data": [
  ["CNC(=O)c1cccc(NCC#Cc2nc3c(N[C@@H]4CCN(C)C[C@@H]4F)cccn3c2SC(F)(F)F)c1 [Example 149]", "p53 Y220C (Homo sapiens, UniProt P04637, Y220C)", "< 0.75 µM"],
  ["CNC(=O)c1ccc(NCC#Cc2nc3c(N[C@H]4CCC(=O)N(C)C4)cccn3c2SC(F)(F)F)c(OC)c1 [Example 187]", "p53 Y220C (Homo sapiens, UniProt P04637, Y220C)", "< 0.75 µM"],
  ["COc1cc(S(C)(=O)=O)ccc1NCC#Cc1nc2c(NC3CC4(COC4)C3)cccn2c1CC(F)(F)F [Example 115]", "p53 Y220C (Homo sapiens, UniProt P04637, Y220C)", "> 3 µM"],
  ["CNC(=O)c1ccc(OC)c(NCC#Cc2nc3c(N[C@@H]4CCNC[C@@H]4F)cccn3c2SC(F)F)n1 [Example 193]", "p53 Y220C (Homo sapiens, UniProt P04637, Y220C)", "< 0.75 µM"],
  ["CNC(=O)c1ccc(NCC#Cc2nc3c(N[C@@H]4CCC(=O)NC4)cccn3c2SC(F)(F)F)c(OC)c1 [Example 182]", "p53 Y220C (Homo sapiens, UniProt P04637, Y220C)", "1.5 to 3 µM"],
  ["COc1cc(S(=O)(=O)C2CC2)ccc1NCC#Cc1nc2c(N[C@@H]3CCN(C)C[C@@H]3F)cccn2c1SC(F)(F)F [Example 81]", "p53 Y220C (Homo sapiens, UniProt P04637, Y220C)", "< 0.75 µM"],
  ["CNC(=O)c1ccc(NCC#Cc2nc3c(N[C@@H]4CCN(C)C[C@@H]4F)cccn3c2SC(F)(F)F)c(OCCOC)c1 [Example 104]", "p53 Y220C (Homo sapiens, UniProt P04637, Y220C)", "< 0.75 µM"]
]}
